# measured.target: Amine oxidase [flavin-containing] A (Homo sapiens)
# Sequence (P21397 whole entry): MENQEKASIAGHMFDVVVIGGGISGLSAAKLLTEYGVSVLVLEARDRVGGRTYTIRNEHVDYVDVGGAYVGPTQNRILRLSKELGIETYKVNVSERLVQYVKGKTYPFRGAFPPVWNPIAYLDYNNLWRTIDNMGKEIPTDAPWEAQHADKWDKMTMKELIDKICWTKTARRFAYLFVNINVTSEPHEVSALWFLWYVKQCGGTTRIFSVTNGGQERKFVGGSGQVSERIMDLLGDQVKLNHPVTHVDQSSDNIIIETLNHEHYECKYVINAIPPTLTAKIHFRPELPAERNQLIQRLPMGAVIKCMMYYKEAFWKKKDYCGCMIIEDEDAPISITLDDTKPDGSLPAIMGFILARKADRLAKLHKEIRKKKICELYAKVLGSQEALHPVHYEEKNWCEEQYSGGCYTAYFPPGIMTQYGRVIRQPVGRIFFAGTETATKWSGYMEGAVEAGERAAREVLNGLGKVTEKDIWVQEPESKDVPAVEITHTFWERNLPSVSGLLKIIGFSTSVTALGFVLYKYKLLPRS
# assay.summary: Inhibition of recombinant human MAOA expressed in insect cell microsomes using kynuramine as substrate preincubated with substrate for 30 mins followed by enzyme addition and measured after 20 mins by fluorescence spectrophotometry
readout.label: IC50 (µM)

(A) Cc1ccc(-c2nc(-c3ccc(C4=NCCN4)cc3)no2)cc1
(B) CC(C)(C)c1ccc(-c2noc(-c3ccc(C4=NCCN4)cc3)n2)cc1
(C) c1cc(-c2noc(C3CC3)n2)ccc1C1=NCCN1
Exam item: Order the above compounds by increasing IC50. Dear reader, please state the labels in the requested order.
Marked response: B, A, C
